- Target Desc: human active recombinant p38α-6His tagged (Homo sapiens)
- Sequence (Q16539 whole entry): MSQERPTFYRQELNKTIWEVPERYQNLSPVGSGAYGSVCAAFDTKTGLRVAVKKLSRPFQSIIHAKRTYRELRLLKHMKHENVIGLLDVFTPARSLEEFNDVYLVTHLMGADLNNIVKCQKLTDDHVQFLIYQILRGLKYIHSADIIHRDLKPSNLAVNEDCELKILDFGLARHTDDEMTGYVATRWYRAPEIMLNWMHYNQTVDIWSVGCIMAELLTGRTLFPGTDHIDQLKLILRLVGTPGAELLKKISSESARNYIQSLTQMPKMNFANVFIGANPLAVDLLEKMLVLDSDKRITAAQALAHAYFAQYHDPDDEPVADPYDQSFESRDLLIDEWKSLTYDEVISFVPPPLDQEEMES
- Assay Remarks: P38 Alpha Enzyme Assay (AlphaScreen, biotinylated-ATF2 substrate);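 also: 0.5 nM final p38α, reaction started with ATP and run 45 min at 37 °C, phospho-ATF2 read by antibody-based AlphaScreen, background wells quenched with EDTA before ATP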
- Format: biochemical
- Condition Context: p38 alpha enzyme inhibition; means of replicate determinations; 4 h pre-incubation at 37° C.; SD of assay 0.2-0.3 log units
Measurement Type: pIC50

Some entries whose results are on file:
{"Compound": "Cc1ccc(C(=O)NC2CC2)cc1-n1ccnc(NCc2nc3ccccc3[nH]2)c1=O", "Target Desc": "human active recombinant p38α-6His tagged (Homo sapiens)", "pIC50": 6.4}
{"Compound": "CCNCCOc1ccccc1C(C)(C)Nc1nccn(-c2cc(C(=O)NC3CC3)ccc2CC)c1=O", "Target Desc": "human active recombinant p38α-6His tagged (Homo sapiens)", "pIC50": 8.5}
{"Compound": "Cc1ccc(C(=O)NC2CC2)cc1-n1ccnc(N[C@@H](c2ccccc2)[C@@H](C)CNC2CC2)c1=O", "Target Desc": "human active recombinant p38α-6His tagged (Homo sapiens)", "pIC50": 9}
{"Compound": "Cc1ccc(CNc2nccn(-c3cc(C(=O)NC4CC4)ccc3C)c2=O)cc1", "Target Desc": "human active recombinant p38α-6His tagged (Homo sapiens)", "pIC50": 6.4}
{"Compound": "Cc1ccc(C(=O)NC2CC2)cc1-n1ccnc(NCc2cccc(C)c2C)c1=O", "Target Desc": "human active recombinant p38α-6His tagged (Homo sapiens)", "pIC50": 7.6}
{"Compound": "CNCCCOc1ccccc1C(C)(C)Nc1nccn(-c2cc(C(=O)NC3CC3)ccc2C)c1=O", "Target Desc": "human active recombinant p38α-6His tagged (Homo sapiens)", "pIC50": 9.6}

P. Cc1ccc(C(=O)NC2CC2)cc1-n1ccnc(NCCc2ccc(OCCN3CCCC3)cc2)c1=O
Q. Cc1c(F)cc(C(=O)NC2CC2)cc1-n1ccnc(NC(C)(C)c2ccccc2OCCN)c1=O
In: Which of these two has the smaller recorded pIC50: P or Q ? // output: label of the selected item
Out: P
(P: 6.8, Q: 10.1)
